target: D. immitis Slo-1 (Dirofilaria immitis); test: D. immitis Slo-1, action at a recombinant CHO cell line (membrane potential, FLIPR)
Sequence (I0DFK5 1-1119): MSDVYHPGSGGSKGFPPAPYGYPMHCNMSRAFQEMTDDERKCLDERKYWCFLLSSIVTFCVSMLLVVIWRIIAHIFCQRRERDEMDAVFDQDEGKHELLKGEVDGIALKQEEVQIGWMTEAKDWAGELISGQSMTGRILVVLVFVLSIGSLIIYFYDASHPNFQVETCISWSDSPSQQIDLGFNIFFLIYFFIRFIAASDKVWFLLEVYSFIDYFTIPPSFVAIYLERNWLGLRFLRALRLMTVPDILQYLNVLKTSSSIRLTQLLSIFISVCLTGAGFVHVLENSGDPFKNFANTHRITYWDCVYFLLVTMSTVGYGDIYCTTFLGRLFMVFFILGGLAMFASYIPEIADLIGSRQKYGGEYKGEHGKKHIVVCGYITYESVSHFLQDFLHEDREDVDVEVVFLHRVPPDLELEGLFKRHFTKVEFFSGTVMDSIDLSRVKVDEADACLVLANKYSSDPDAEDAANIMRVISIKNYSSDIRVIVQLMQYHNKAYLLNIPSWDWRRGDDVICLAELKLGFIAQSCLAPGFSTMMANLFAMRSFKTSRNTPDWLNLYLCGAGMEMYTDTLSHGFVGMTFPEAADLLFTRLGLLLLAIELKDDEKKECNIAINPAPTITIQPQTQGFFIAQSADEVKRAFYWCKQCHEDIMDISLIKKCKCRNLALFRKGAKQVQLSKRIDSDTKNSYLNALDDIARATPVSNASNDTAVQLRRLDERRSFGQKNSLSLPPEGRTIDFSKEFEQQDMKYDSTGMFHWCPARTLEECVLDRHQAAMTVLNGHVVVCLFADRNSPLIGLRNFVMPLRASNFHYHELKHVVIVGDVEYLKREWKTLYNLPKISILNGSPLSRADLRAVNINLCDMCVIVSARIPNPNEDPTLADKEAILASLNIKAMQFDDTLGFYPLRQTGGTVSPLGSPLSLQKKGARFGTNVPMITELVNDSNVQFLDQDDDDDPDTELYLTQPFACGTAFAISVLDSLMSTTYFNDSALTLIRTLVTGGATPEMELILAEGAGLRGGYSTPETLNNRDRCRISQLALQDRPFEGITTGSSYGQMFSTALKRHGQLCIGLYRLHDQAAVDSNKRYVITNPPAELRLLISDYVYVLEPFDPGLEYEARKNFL
pEC50: −log10 of the molar value.
MEASURE: pEC50

# SMILES STRUCTURE, TARGET OR SYSTEM, MEASURED
rows = [
    ("COc1ncc(-c2cc(Cl)cc(Cl)c2)c2ncc(C(=O)N[C@H]3CCOc4ccccc43)c(N3CCOCC3)c12", "D. immitis Slo-1 (Dirofilaria immitis)", "6.50 to 7.50"),
    ("CN(C)c1c(C(=O)N[C@H]2CCOc3ccccc32)cnc2c(-c3cc(F)cc(F)c3F)c(Cl)cnc12", "D. immitis Slo-1 (Dirofilaria immitis)", "7.50 to 8.50"),
    ("O=C(N[C@H]1CCOc2ccccc21)c1cnc2c(-c3cc(Cl)cc(Cl)c3)cncc2c1N1CCOCC1", "D. immitis Slo-1 (Dirofilaria immitis)", "6.50 to 7.50"),
    ("CN(C)c1c(C(=O)N[C@H]2CCOc3ccccc32)cnc2c(-c3cc(Cl)cc(Cl)c3)nccc12", "D. immitis Slo-1 (Dirofilaria immitis)", "6.50 to 7.50"),
    ("O=C(N[C@H]1CCOc2ccccc21)c1cnc2c(-c3cccc(Cl)c3Cl)nccc2c1N1CCOCC1", "D. immitis Slo-1 (Dirofilaria immitis)", "6.50 to 7.50"),
    ("O=C(N[C@H]1CCOc2ccccc21)c1cnc2c(-c3cc(F)cc(F)c3F)c(Cl)cnc2c1N1CCOCC1", "D. immitis Slo-1 (Dirofilaria immitis)", "7.50 to 8.50"),
    ("COc1ncc2c(N3CCOCC3)c(C(=O)N[C@H]3CCOc4ccccc43)cnc2c1-c1cc(Cl)cc(Cl)c1", "D. immitis Slo-1 (Dirofilaria immitis)", "7.50 to 8.50"),
    ("COc1ncc(-c2cccc(Cl)c2Cl)c2ncc(C(=O)N[C@H]3CCOc4ccccc43)c(N(C)C)c12", "D. immitis Slo-1 (Dirofilaria immitis)", "6.50 to 7.50"),
    ("O=C(N[C@H]1CCOc2ccccc21)c1cnc2c(-c3cc(F)cc(F)c3F)nccc2c1N1CCOCC1", "D. immitis Slo-1 (Dirofilaria immitis)", "6.50 to 7.50"),
    ("COc1cnc(-c2cccc(Cl)c2Cl)c2ncc(C(=O)N[C@H]3CCOc4ccccc43)c(N3CCOCC3)c12", "D. immitis Slo-1 (Dirofilaria immitis)", "6.50 to 7.50"),
    ("CN(C)c1c(C(=O)N[C@H]2CCOc3ccccc32)nnc2c(-c3cccc(Cl)c3Cl)cccc12", "D. immitis Slo-1 (Dirofilaria immitis)", "7.50 to 8.50"),
    ("COc1ncc(-c2cc(Cl)cc(Cl)c2)c2ncc(C(=O)N[C@H]3CCOc4ccccc43)c(N(C)C)c12", "D. immitis Slo-1 (Dirofilaria immitis)", "6.50 to 7.50"),
    ("CN(C)c1c(C(=O)N[C@H]2CCOc3ccccc32)cnc2c(-c3cccc(Cl)c3Cl)nccc12", "D. immitis Slo-1 (Dirofilaria immitis)", "6.50 to 7.50"),
    ("COc1cnc2c(N(C)C)c(C(=O)N[C@H]3CCOc4ccccc43)cnc2c1-c1cccc(Cl)c1Cl", "D. immitis Slo-1 (Dirofilaria immitis)", "7.50 to 8.50"),
    ("O=C(N[C@H]1CCOc2ccccc21)c1cnc2c(-c3cccc(Cl)c3Cl)c(Cl)cnc2c1N1CCOCC1", "D. immitis Slo-1 (Dirofilaria immitis)", "7.50 to 8.50"),
    ("COc1ncc(-c2cccc(Cl)c2Cl)c2ncc(C(=O)N[C@H]3CCOc4ccccc43)c(N3CCOCC3)c12", "D. immitis Slo-1 (Dirofilaria immitis)", "6.50 to 7.50"),
    ("CN(C)c1c(C(=O)N[C@H]2CCOc3ccccc32)cnc2c(-c3cc(Cl)cc(Cl)c3)ccnc12", "D. immitis Slo-1 (Dirofilaria immitis)", "7.50 to 8.50"),
    ("COc1cnc2c(N(C)C)c(C(=O)N[C@H]3CCOc4ccccc43)cnc2c1-c1cc(F)cc(F)c1F", "D. immitis Slo-1 (Dirofilaria immitis)", "7.50 to 8.50"),
    ("O=C(N[C@H]1CCOc2ccccc21)c1cnc2c(-c3cccc(Cl)c3Cl)ccnc2c1N1CCOCC1", "D. immitis Slo-1 (Dirofilaria immitis)", "7.50 to 8.50"),
    ("O=C(N[C@H]1CCOc2ccccc21)c1cnc2c(-c3cc(Cl)cc(Cl)c3)nccc2c1N1CCOCC1", "D. immitis Slo-1 (Dirofilaria immitis)", "6.50 to 7.50"),
    ("CN(C)c1c(C(=O)N[C@H]2CCOc3ccccc32)nnc2c(-c3cc(Cl)cc(Cl)c3)cccc12", "D. immitis Slo-1 (Dirofilaria immitis)", "6.50 to 7.50"),
    ("COc1cnc2c(N3CCOCC3)c(C(=O)N[C@H]3CCOc4ccccc43)cnc2c1-c1cc(F)cc(F)c1F", "D. immitis Slo-1 (Dirofilaria immitis)", "7.50 to 8.50"),
    ("COc1c(C(=O)N[C@H]2CCOc3ccccc32)nnc2c(-c3cccc(Cl)c3)cccc12", "D. immitis Slo-1 (Dirofilaria immitis)", "6.50 to 7.50"),
    ("COc1c(C(=O)N[C@H]2CCOc3ccccc32)nnc2c(-c3ccc(F)c(F)c3)cccc12", "D. immitis Slo-1 (Dirofilaria immitis)", "6.50 to 7.50"),
    ("COc1cnc(-c2cccc(Cl)c2Cl)c2ncc(C(=O)N[C@H]3CCOc4ccccc43)c(N(C)C)c12", "D. immitis Slo-1 (Dirofilaria immitis)", "6.50 to 7.50"),
    ("O=C(N[C@H]1CCOc2ccccc21)c1cnc2c(-c3cc(F)cc(F)c3F)c(F)cnc2c1N1CCOCC1", "D. immitis Slo-1 (Dirofilaria immitis)", "7.50 to 8.50"),
    ("COc1ncc2c(N(C)C)c(C(=O)N[C@H]3CCOc4ccccc43)cnc2c1-c1cc(Cl)cc(Cl)c1", "D. immitis Slo-1 (Dirofilaria immitis)", "7.50 to 8.50"),
    ("CN(C)c1c(C(=O)N[C@H]2CCOc3ccccc32)cnc2c(-c3cccc(Cl)c3Cl)ccnc12", "D. immitis Slo-1 (Dirofilaria immitis)", "7.50 to 8.50"),
    ("COc1cnc2c(N(C)C)c(C(=O)N[C@H]3CCOc4ccccc43)cnc2c1-c1cc(Cl)cc(Cl)c1", "D. immitis Slo-1 (Dirofilaria immitis)", "7.50 to 8.50"),
]
